experimental_system: DQB1*06:02
assay_method_text: Peptide binding to HLA-DQ allele, competition assay
pIC50: −log10 of the molar value.
Property: pIC50; scope: individual compounds

{"columns": ["compound", "experimental_system", "pIC50"],
 "data": [
  ["CC[C@H](C)[C@H](NC(=O)[C@H](CC(C)C)NC(=O)[C@@H](N)CC(C)C)C(=O)N[C@@H](CC(=O)O)C(=O)N[C@H](C(=O)N[C@H](C(=O)N[C@H](C(=O)N[C@@H](Cc1ccc(O)cc1)C(=O)N[C@@H](CC(C)C)C(=O)N[C@H](C(=O)N[C@@H](C)C(=O)N[C@@H](CC(C)C)C(=O)N[C@H](C(=O)N1CCC[C@H]1C(=O)N[C@@H](CCC(=O)O)C(=O)O)[C@@H](C)CC)C(C)C)[C@@H](C)O)C(C)C)C(C)C [Peptide 3563.0002]", "DQB1*06:02", 4.41],
  ["CSCC[C@H](NC(=O)[C@H](CC(C)C)NC(=O)[C@H](Cc1ccc(O)cc1)NC(=O)[C@H](C)NC(=O)[C@H](C)NC(=O)[C@H](CC(C)C)NC(=O)[C@H](CCCNC(=N)N)NC(=O)[C@H](CCCCN)NC(=O)[C@@H](N)CC(=O)O)C(=O)N[C@@H](CC(C)C)C(=O)N[C@@H](CCSC)C(=O)N[C@@H](CCCNC(=N)N)C(=O)N[C@@H](CO)C(=O)N1CCC[C@H]1C(=O)N[C@@H](CO)C(=O)O [Peptide 3563.0004]", "DQB1*06:02", 7.89],
  ["CC[C@H](C)[C@H](NC(=O)[C@H](CC(C)C)NC(=O)[C@H](CO)NC(=O)[C@@H](NC(=O)[C@@H](NC(=O)[C@@H](N)CCCCN)[C@@H](C)CC)C(C)C)C(=O)N[C@@H](CCCCN)C(=O)N[C@@H](CC(N)=O)C(=O)N[C@@H](CC(C)C)C(=O)N[C@@H](CC(C)C)C(=O)N[C@H](C(=O)N[C@@H](C)C(=O)N[C@@H](CC(C)C)C(=O)N[C@@H](CCCCN)C(=O)N[C@@H](CC(=O)O)C(=O)O)C(C)C [Peptide 3563.0028]", "DQB1*06:02", 5.84]
]}
